- measurementTarget: Serine/threonine-protein kinase pim-1 (Homo sapiens)
- experimentalProtocol: Inhibition of Pim1 assessed as residual enzyme activity at 10 uM
measuredProperty: Activity (%)

Consider the following illustrative entries.
c1n[nH]c2cc3nc4c(nc3cc12)CCCC4	55.1
Nc1cc2cn[nH]c2cc1N	59

1 = CC1(C)[C@H]2CC[C@]1(C)c1nc3cc4[nH]ncc4cc3nc12
2 = CCc1nc2cc3cn[nH]c3cc2nc1CC
Query: Given 1 and 2 , report the one with the higher recorded Activity. To answer, give the label that identifies your chosen option.
Result: 1
